# System: SR leukemia
# assay.text: NCI-60 one-dose screen, 48 h
# experimental.parameters: 10 µM
This is part of a sample that, as a whole, favours compounds with a hit. Of some 83,000 tested, about 20% had one in any assay. Activity calls are given as the source filed them. Rule for the calls: active = growth percent below 10; inactive = the rest.
Labels: active, inactive

INSERT INTO assay_data (compound, measured_target, class_label) VALUES
  ('CCN1CCC(CCOC)(CN2c3ccccc3Sc3ccc(Cl)cc32)C1 (stereo unspecified)', 'SR leukemia', 'inactive'),
  ('O=S(=O)(NCCNc1nccc(-c2c(-c3ccc(F)cc3)nc3sccn23)n1)c1ccc2ccccc2c1', 'SR leukemia', 'inactive'),
  ('COc1ccc(S(=O)(=O)Nc2c(/C=C\c3cc(OC)c(OC)c(OC)c3)ccc(OC)c2O)cc1', 'SR leukemia', 'inactive'),
  ('COc1cccc(Cn2c(-c3nonc3N)nc3ccccc32)c1', 'SR leukemia', 'active'),
  ('O=C(C[n+]1ccccc1)c1ccc2ccccc2c1', 'SR leukemia', 'inactive'),
  ('Cc1cc(N(CCCNc2ccnc3cc(Cl)ccc23)Cc2ccc3c(c2)OCO3)nc(N2CCCCC2)n1', 'SR leukemia', 'active');

* * *

# System: HOP-62 NSCLC
# assay.text: NCI-60 one-dose screen, 48 h
# experimental.parameters: 10 µM
The panel holds about 83,000 compounds, 20% with a hit somewhere; the sample as a whole holds those more often. Activity calls are given as the source filed them. Rule for the calls: active = growth percent below 10; inactive = the rest.
Labels: true (active), false (inactive)

INSERT INTO results (compound, class_label) VALUES
  ('CCCCCCCNc1nc(C=O)ncc1-c1ccc(C(F)(F)F)cc1', 'false'),
  ('Cc1cc(Cl)nc(N(CCCNc2ccnc3cc(Cl)ccc23)Cc2cccs2)n1', 'false'),
  ('O=C(Nc1ccncc1)C(=O)c1cn(S(=O)(=O)c2cccc(Cl)c2)c2ccccc12', 'false'),
  ('Fc1cc(C(F)(F)F)ccc1-c1cncnc1NC1CCCCCC1', 'false'),
  ('C[N+](C)(C)c1ncnc2nc[nH]c12', 'false'),
  ('CN(C)Cc1cn(-c2ncc(-c3ccc(C(F)(F)F)cc3)c(NC3CCCCCC3)n2)nn1', 'false'),
  ('COc1ccc(/C=C2/CN(C(=O)c3ccc(C)cc3)C/C(=C\c3ccc(OC)cc3)C2=O)cc1', 'false'),
  ('CCN1CCCC1CNC(=O)c1ncc(-c2ccc(C(F)(F)F)cc2)c(NC2CCCCCC2)n1 (stereo not drawn)', 'false'),
  ('Nc1ccn(C2CC(O)C(CO)O2)c(=O)n1 (stereo not drawn)', 'false'),
  ('CC(C)C[C@H](NC(=O)[C@H](Cc1cccc2ccccc12)NS(=O)(=O)c1cccc2cccnc12)B(O)O', 'true'),
  ('O=C(Nc1nc2ccccc2s1)Nc1ccc([N+](=O)[O-])cc1Cl', 'false'),
  ('COc1ccc(CN2CCC(N3CCCC3=O)c3cc(Cl)ccc32)cc1 (stereo not drawn)', 'false'),
  ('COc1ccc(OC)c(NC(=O)c2sc3nc4c(cc3c2N)C(=O)CCC4)c1', 'false'),
  ('c1ccc(CNc2ncnc3scc(-c4cccs4)c23)nc1', 'false'),
  ('O=C1OCC2=C1C(c1ccc(Cl)c(Cl)c1)c1cc3c(cc1N2CCO)OCCO3 (stereo not drawn)', 'false'),
  ('ClCCOCCn1cnc2c(Cl)nc(Cl)nc21', 'false'),
  ('COc1ccc(Cl)cc1C(=O)Nc1nc2ccc(Cl)cc2s1', 'false'),
  ('CC(=O)N(C)c1ccc(Nc2ccc(Nc3ccc(N(C)C(C)=O)cc3)c3c2C(=O)c2ccccc2C3=O)cc1', 'false'),
  ('CCCCCCN1C(=O)C2=C(c3ccc(Cl)cc3)Nc3c(c(C)nn3-c3ccccc3)C2c2ccccc21 (stereo not drawn)', 'false'),
  ('C#Cc1ccc(-n2c(/C=C/c3ccc(Cl)c(F)c3)nc3ncccc3c2=O)cc1', 'true'),
  ('COc1ccc2c(c1)N(CCO)C1=C(C(=O)OC1)C2c1ccc(OC)c(OC)c1 (stereo not drawn)', 'false'),
  ('CCCN(CCC)CCC(O)c1cc2c(c3ccccc13)CCCC2 (stereo not drawn)', 'false'),
  ('O=C(O)C(SC(C(=O)O)c1ccccc1)c1ccccc1 (stereo not drawn)', 'false'),
  ('CN(C)CCS(=O)(=O)CCN(C)C', 'false'),
  ('O=C(Nc1cccc(-n2cc(-c3ccncc3)c(-c3ccc(O)c(Cl)c3)n2)c1)c1cc(C(F)(F)F)cc(C(F)(F)F)c1', 'false'),
  ('Nc1ccccc1NC(=O)CCCCC(=O)Nc1ccc2c(c1)/C(=C/c1ccc[nH]1)C(=O)N2', 'false'),
  ('COc1ccc2nc3ccccc3c(NCCNCC(C)O)c2c1 (stereo not drawn)', 'true'),
  ('O=S(=O)(Nc1ccccn1)c1ccc(N=Nc2ccc(O)c3ncccc23)cc1', 'true');

* * *

# Tested on: CCRF-CEM leukemia
# assay.text: NCI-60 one-dose screen, 48 h
# experimental.parameters: 10 µM
The panel holds about 83,000 compounds, 20% with a hit somewhere; the sample as a whole holds those more often. Activity calls are given as the source filed them. How the source made its calls: active means growth percent below 10; inactive means the rest.
Labels: active, inactive

INSERT INTO measurements (compound, class_label) VALUES
  ('CCN1CCN(c2nc3ccccc3c3c(=O)c4ccccc4sc23)CC1', 'inactive'),
  ('COc1ccc(S(=O)(=O)Nc2c(/C=C\c3cc(OC)c(OC)c(OC)c3)ccc(OC)c2O)cc1', 'inactive'),
  ('C#Cc1ccc(-n2c(/C=C/c3ccc4ccccc4n3)nc3ncccc3c2=O)cc1', 'active'),
  ('c1ccc(CNc2ncnc3scc(-c4cccs4)c23)nc1', 'inactive'),
  ('O=[N+]([O-])c1ccc(Oc2cc(Cl)c(Cl)cc2Cl)c(C(F)(F)F)c1', 'inactive'),
  ('Fc1ccc2nc(-c3nc(-c4ccccc4)n4ccccc34)[nH]c2c1', 'inactive'),
  ('CN(C)c1ccc(/C=C/C=N/NC(=O)c2cc(O)c(O)c(O)c2)cc1', 'inactive'),
  ('O=C1N=NC2=C1c1c3ccccc3c(O)n1CC2', 'inactive'),
  ('COc1ccc(-c2nc3sc(C4CC4)nn3c2/C=C2/C(=O)Nc3ccc(OC)cc32)cc1', 'inactive'),
  ('Cc1ccc2oc3nc(C)c(C(=O)NCc4ccccc4)cc3c(=O)c2c1', 'inactive'),
  ('O=C(Nc1ccncc1)C(=O)c1cn(S(=O)(=O)c2ccc(F)cc2)c2ccccc12', 'inactive'),
  ('CCCCCCCCCCCCCC[n+]1ccc(C(N)=O)cc1', 'active'),
  ('COc1cc(/C=C/C(=O)c2ccc(Cl)cc2)ccc1OS(=O)(=O)c1ccc(C)cc1', 'inactive'),
  ('CCc1ccc2c(c1)N(CCO)C1=C(C(=O)OC1)C2c1cc(OC)c(OC)c(OC)c1 (configuration not stated)', 'inactive'),
  ('CSCCCNC(=O)c1ccc2c(c1)/C(=C/c1[nH]c(C)cc1C)C(=O)N2', 'inactive'),
  ('CCN1Cc2c(/C=C/c3ccccc3)nc3ccc(OC)cc3c2N(c2cccc(Cl)c2)C1', 'inactive'),
  ('Cc1nc2ccccc2c(N)c1-c1cc(C)c2c(C)nc3ccccc3c2n1', 'active'),
  ('O=C(Nc1cccc(-n2cc(-c3ccncc3)c(-c3ccc(O)c(Cl)c3)n2)c1)c1ccc(N2CCOCC2)c(C(F)(F)F)c1', 'inactive'),
  ('CC(=O)c1cc(Br)ccc1O', 'inactive'),
  ('CCC(=O)N1C/C(=C/c2ccc(OC)cc2)C(=O)/C(=C/c2ccc(OC)cc2)C1', 'active'),
  ('O=C(Nc1cccc(-n2cc(-c3ccncc3)c(-c3ccc(O)c(Cl)c3)n2)c1)c1cccc(C(F)(F)F)c1', 'inactive'),
  ('COc1ccc(-c2nc(-c3nc4ccc(Cl)cc4[nH]3)c3ccccn23)cc1', 'inactive'),
  ('Nc1ncn(C2OC(CO)C(O)C2O)c(=O)n1 (configuration not stated)', 'active'),
  ('Cc1nc2ccc(CN(C)c3ccc(C(=O)N[C@@H](CCC(=O)O)C(=O)O)s3)cc2c(=O)[nH]1', 'inactive'),
  ('N#CC1=C(Nc2ccccc2Cl)SC(c2ccccc2O)NC1=O (configuration not stated)', 'inactive'),
  ('CCC(=O)N1C/C(=C/c2ccc(Cl)cc2)C(=O)/C(=C/c2ccc(Cl)cc2)C1', 'active'),
  ('COc1cc2nc(Nc3cccc(NC(C)=O)c3)nc(N)c2cc1OC', 'active'),
  ('COc1ccc2c(c1)sc1nc(-c3ccccc3)c(-c3ccsc3)n12', 'inactive'),
  ('O=S(=O)(NCCNc1nccc(-c2c(-c3ccc(F)cc3)nc3sccn23)n1)c1ccc2ccccc2c1', 'inactive'),
  ('COc1ccc2nc3cc(Cl)ccc3c(NCCNCC(C)O)c2c1 (configuration not stated)', 'inactive'),
  ('CN(C)CCN=c1nc2c(c(N)n1-c1ccccc1)c(=S)n(-c1ccccc1)c(=S)n2-c1ccccc1', 'active'),
  ('FC(F)(F)c1ccc(-c2cnc(Cl)nc2N2CCC3(CC2)OCCO3)cc1', 'inactive');
